So I've got a bunch of compounds here, and I need their GI50 values.
System: OVCAR-5
runDescription: NCI tumour cell line growth inhibition, 48 h
Activity calls are given as the source filed them. No stated cut-off is given here; in the data, active = GI50 up to about 1.1 µM and inactive = higher.

What does the record list as GI50 for O=C(C/N=C(\CN(c1ccccc1)c1ccccc1)Oc1ccc(Cl)cc1Cl)n1ccnc1 ?
> 100 µM (inactive)

What does the record list as GI50 for CCOP(=O)(O)C(Nc1ccc(/N=N/c2ccccc2)cc1)c1ccc(C(Nc2ccc(/N=N/c3ccccc3)cc2)P(=O)(O)OCC)cc1 (stereo unspecified) ?
22.4 µM (inactive)

What does the record list as GI50 for Nc1cc2c3c(cccc3c1)NC2=O ?
> 100 µM (inactive)

What does the record list as GI50 for COc1cc(/C=C2\C(=O)N(c3ccccc3Cl)C(c3ccccc3)S2(=O)=O)cc(OC)c1OC (stereo unspecified) ?
20.9 µM (inactive)

What does the record list as GI50 for CC(C)N(C(=O)C12C3C4C5(C(=O)O)C(C1C35I)C42C(=O)O)C(C)C (stereo unspecified) ?
> 100 µM (inactive)

What does the record list as GI50 for Oc1ccc2ccccc2c1/N=N/c1ccsc1 ?
> 100 µM (inactive)

What does the record list as GI50 for CNC(=O)CCNC(=O)CCC(=O)N(C)C ?
> 100 µM (inactive)

What does the record list as GI50 for Nc1ccc2c(c1)C(=O)c1ccccc1-2 ?
> 100 µM (inactive)

What does the record list as GI50 for Cc1ccc(Cc2n[nH]c(=O)n2N2C(=O)c3ccccc3C2=O)cc1 ?
> 100 µM (inactive)

What does the record list as GI50 for COc1ccc(C(SCCO)(c2ccccc2)c2ccccc2)cc1 ?
16.9 µM (inactive)

What does the record list as GI50 for O=Nc1c(-c2c(O)[nH]c3ccc(I)cc23)[nH]c2ccccc12 ?
3.25 µM (inactive)

###

System: OVCAR-5
runDescription: NCI tumour cell line growth inhibition, 48 h
Calls of active or inactive are those of the source. Cut-off read from the data, not from the text of the source: active = GI50 up to about 1.1 µM and inactive = higher.
measure: GI50

What does the record list as GI50 for CCOC(=O)C1(Cc2ccccc2)Cc2ccccc2C1=O (centres undefined) ?
30.4 µM (inactive)

What does the record list as GI50 for CC(CCc1ccc2c(c1)c(N)c1ccc(N)cc1[n+]2[O-])CC(C)(C)C (centres undefined) ?
1.48 µM (inactive)

What does the record list as GI50 for COc1cc(OC)cc(C(=O)CC(=O)c2cc(OC)cc(OC)c2)c1 ?
> 100 µM (inactive)

What does the record list as GI50 for CC(C)(Cc1ccccc1)N1C(=O)N1C(C)(C)Cc1ccccc1 ?
19.9 µM (inactive)

What does the record list as GI50 for OC1(c2ccc(Cl)cc2)c2c(c3ccccc3c3ccccc23)C2=NCCN21 (centres undefined) ?
17 µM (inactive)

What does the record list as GI50 for COc1cc(/C=C/c2cc(=O)cc(/C=C/c3ccc(O)c(OC)c3)o2)ccc1O ?
> 100 µM (inactive)

What does the record list as GI50 for CC(C)[Si](OC1=CCC[C@H]2NC(=O)[C@@H](Cc3ccccc3)[C@@]12C)(C(C)C)C(C)C ?
9.44 µM (inactive)

What does the record list as GI50 for CCOP(=S)(OCC)Oc1ccc2c(c1)OC(=O)C1(Cl)C2(C)C2(Cl)C(=O)Oc3cc(OP(=S)(OCC)OCC)ccc3C12C (centres undefined) ?
19 µM (inactive)

What does the record list as GI50 for COC(=O)C(NC(=O)C(CC(=O)OC(C)(C)C)NC(=O)OC(C)(C)C)C(O)c1ccccc1 (centres undefined) ?
> 100 µM (inactive)

###

Test system: NCI-H522
runDescription: NCI tumour cell line growth inhibition, 48 h
Calls of active or inactive are those of the source. Cut-off read from the data, not from the text of the source: active = GI50 up to about 1.1 µM and inactive = higher.
Your reply should match one of these outcome classes. t = active, f = inactive

Outcome? COc1ccc(C(SCCO)(c2ccccc2)c2ccccc2)cc1
f

Outcome? Cc1ccc(-c2nc(N/N=C/C=C/c3ccccc3)c3ccccc3n2)cc1
f

Outcome? O=P(OCc1ccccc1)(OCc1ccccc1)C(O)/C=C/c1ccccc1 (stereo unspecified)
f

Outcome? CCCCn1cnnc1NS(=O)(=O)c1cc(C)c(Cl)cc1SCC(=O)O
f

Outcome? CN(C)c1ccc(-c2c(C#N)c(-c3ccccc3)n(NS(=O)(=O)c3ccccc3)c(=O)c2C#N)cc1
f

Outcome? Nc1nncc2[nH]cnc12
f

Outcome? Cc1cc2c(cc1C)[n+]([O-])c(C(=O)/C=C/c1ccc3c(c1)OCO3)c(C)[n+]2[O-]
f

Outcome? COc1cc(O)c(C(=O)/C=C/c2ccccc2)c(OC)c1
f

Outcome? COc1cc(C(=O)Nc2cc(C(N)=O)cc(OC)c2OC)cc(NC(=O)/C=C/c2ccccc2)c1OC
f

Outcome? CN(C)C(=S)/N=c1\ss/c(=N\S(=O)(=O)c2ccccc2)n1N(C)C
f

Outcome? CC(NC(=O)C(NC(=O)C(NC(=O)C(F)(F)F)C(C)C)C(C)C)C(=O)Oc1c(Cl)c(Cl)c(Cl)c(Cl)c1Cl (stereo unspecified)
f

Outcome? COc1ccc(N2C(N)=C(C#N)C(C#N)(C#N)C2c2cccc([N+](=O)[O-])c2)cc1 (stereo unspecified)
f

Outcome? CCOC(=O)CC1c2ccc(O)cc2OC(=O)C1c1ccc(N)cc1 (stereo unspecified)
f

Outcome? C/C(=N\NC(=S)Nc1ccc([N+](=O)[O-])cc1)c1nc2cccnc2[nH]1
t

Outcome? COc1ccc2[nH]c3c(C)c4cnccc4c(C)c3c2c1
f

Outcome? Cc1cn(C2C=CC(COP(=O)(OCc3ccc([N+](=O)[O-])o3)N(C)CCCCCl)O2)c(=O)[nH]c1=O (stereo unspecified)
f

Outcome? CC(/C=C/c1ccccc1)=N\NC(=S)N/N=C(C)/C=C/c1ccccc1
f

Outcome? CN(/N=C/c1ccnc2ccccc12)c1ccc(Cl)cc1[N+](=O)[O-]
f

Outcome? CNc1ccc([S+]([O-])Nc2ccc(OC)cc2)cc1 (stereo unspecified)
f

Outcome? COc1ccc2c(c1)/C(=C\c1cccc(/C=C3/C(=O)Nc4ccc(OC)cc43)n1)C(=O)N2
t

Outcome? Cc1cc(C)c2c(O)cc(-c3ccc(Cl)cc3)nc2n1
f

###

System: M14
runDescription: NCI tumour cell line growth inhibition, 48 h
Calls of active or inactive are those of the source. Cut-off read from the data, not from the text of the source: active = GI50 up to about 1.1 µM and inactive = higher.
measure: GI50

What does the record list as GI50 for CC(C)OC(=O)[C@H]1ON2O[C@H](O[C@@H]3CCCC[C@H]3c3ccccc3)C([Si](C)(C)c3ccccc3)[C@H]3OC(=O)[C@@H]1C32 (stereo partly drawn) ?
> 100 µM (inactive)

What does the record list as GI50 for CCOP(=S)(OCC)Oc1ccc2c(c1)OC(=O)C1(Cl)C2(C)C2(Cl)C(=O)Oc3cc(OP(=S)(OCC)OCC)ccc3C12C (stereo not drawn) ?
17.7 µM (inactive)

What does the record list as GI50 for CCOC(=O)C(CS)NC(=O)CCCCCCCC(=O)O (stereo not drawn) ?
> 100 µM (inactive)

###

System: A498
runDescription: NCI tumour cell line growth inhibition, 48 h
Active and inactive are the calls of the source. Cut-off read from the data, not from the text of the source: active = GI50 up to about 1.1 µM and inactive = higher.
measure: GI50

What does the record list as GI50 for CC(C)(Cc1ccccc1)N1C(=O)N1C(C)(C)Cc1ccccc1 ?
> 100 µM (inactive)

What does the record list as GI50 for CCCCCc1cc2cc3c(c(O)c2c(=O)[nH]1)C1(CCC3)C(=O)c2c(O)ccc(O)c2C1=O ?
> 100 µM (inactive)

What does the record list as GI50 for COC(=O)C1=C(OC(=O)/C(=C/c2ccccc2)c2ccc(OC)cc2)C(C(=O)OC)[C@@]2(O)[C@@H](C(=O)OC)[C@H](C)C[C@@H]1[C@@H]2C(=O)OC (stereo not given in full) ?
> 100 µM (inactive)

What does the record list as GI50 for COc1cccc(/C=N/n2c(-c3ccccc3)n[nH]c2=O)c1 ?
24.4 µM (inactive)

What does the record list as GI50 for COc1ccc(C(=O)C#Cc2cnc(OC)nc2OC)cc1 ?
18.7 µM (inactive)

What does the record list as GI50 for CC(=O)c1ccc2c3c1[C@H]1O[C@H]1c1cccc(c1-3)[C@@H]1O[C@H]21 ?
2.37 µM (inactive)

What does the record list as GI50 for Cn1nc(S(N)(=O)=O)s/c1=N/C(N)=S ?
> 100 µM (inactive)

What does the record list as GI50 for CC1(C(=O)O)CCCC1C(=O)O (stereo not given) ?
> 100 µM (inactive)

What does the record list as GI50 for Cc1c2n(c(=O)[nH]c1=O)C1OC(CO)C(N=[N+]=[N-])C1O2 (stereo not given) ?
> 100 µM (inactive)

What does the record list as GI50 for NC(=O)c1nc[nH]c1/N=N/SCC(N)C(=O)O (stereo not given) ?
> 100 µM (inactive)

###

System: NCI-H23
runDescription: NCI tumour cell line growth inhibition, 48 h
Calls of active or inactive are those of the source. No stated cut-off is given here; in the data, active = GI50 up to about 1.1 µM and inactive = higher.
So I've got a bunch of compounds here, and I need their GI50 values.

What does the record list as GI50 for NC(=S)N/N=C1\C(=O)N(CCc2ccccc2)C(=O)C1C(=O)NCCc1ccccc1 (stereo not given) ?
> 100 µM (inactive)

What does the record list as GI50 for O=C(C/N=C(\CN(c1ccccc1)c1ccccc1)Oc1ccc(Cl)cc1Cl)n1ccnc1 ?
> 100 µM (inactive)

What does the record list as GI50 for C=C=CC(NC(=O)c1ccccc1)(C(=O)O)C(F)(F)F (stereo not given) ?
> 100 µM (inactive)

What does the record list as GI50 for N#Cc1c(-c2ccccc2)nc(-c2ccccc2)sc1=S ?
> 100 µM (inactive)

What does the record list as GI50 for CC(C)N(CCn1c2c3ccccc3ccc2c2oc(=O)c3ccccc3c21)C(C)C ?
> 100 µM (inactive)

What does the record list as GI50 for COc1cccc(/C=N/[N-]C(=S)Nc2ccccc2)c1[O-].O.[Zn+2] ?
37.7 µM (inactive)

What does the record list as GI50 for COc1ccc(NS(=O)(=O)c2ccc(NC(NC(=O)CC(C)C)(C(F)(F)F)C(F)(F)F)cc2)nn1 ?
> 100 µM (inactive)

What does the record list as GI50 for OC1(c2ccc(Cl)cc2)c2c(c3ccccc3c3ccccc23)C2=NCCN21 (stereo not given) ?
11.6 µM (inactive)

What does the record list as GI50 for COC(=O)C1=C(C(=O)OC)C2(c3ccccc3)OC1(c1ccccc1)c1cc3ccccc3cc12 ?
1.92 µM (inactive)

What does the record list as GI50 for COc1ccc2ccccc2c1CN1CCOCCOCCN(Cc2c(OC)ccc3ccccc23)CCOCCOCC1 ?
> 75.3 µM (inactive)
